- measurement-description: inhibitors of the yeast RAM network, pilot screen, dse1pr::URA3 reporter, 5-FOA selection (AID 869);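 further: 0% = DMSO wells with no growth and 100% = 10 µM 1-NA-PP1 with full growth; RAM network block rescues cells from 5-FOA so hits raise OD615 growth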
- assay-context: S. cerevisiae dse1pr::URA3 5-FOA growth, OD615, 2 d; at 10 µM; hits give high values; strain carries analog-sensitive mutant Cbk1 kinase
experimental-endpoint: inhibition (%)
I only need the number, in %, no unit after it.

Give the measured inhibition for N#Cc1ccccc1Cn1c(=O)n(-c2ccc(CC(=O)NCc3ccco3)cc2)c(=O)c2sccc21
2.13

Give the measured inhibition for CC1=C(C(=O)OCC2CCCO2)C(c2ccncc2)C2=C(CCCC2=O)N1 (stereo not drawn)
2.9

Give the measured inhibition for COc1ccc(NC(=O)C2=C(C)NC(=O)NC2c2cccc(OC)c2OC)c(OC)c1 (stereo not drawn)
0.405

====

- measurement-description: RAM signaling pathway blockade in yeast – S. cerevisiae, Pdr1DBD-CYC8 efflux-inhibited sensitized strain, primary screen (AID 1298);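 further: 0% = DMSO untreated cells without growth and 100% = 10 µM 1-NA-PP1 full growth; higher means more yeast growth rescued from 5-FOA killing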
- assay-context: S. cerevisiae cbk1-as DSE1-URA3 strain, 5-FOA growth OD615, 2 d; at 50 µM; hits give high values
experimental-endpoint: RAM network inhibition (%)
I only need the number, in %, no unit after it.

Give the measured RAM network inhibition for CCOc1ccccc1Nc1nnc(C)c(=O)[nH]1
3.65

Give the measured RAM network inhibition for CC(C)C(=O)Nc1nnc(-c2ccccc2)o1
-0.68

Give the measured RAM network inhibition for c1ccc2c(c1)nc(NCC1CCCO1)c1nnnn12 (configuration not stated)
2.87

Give the measured RAM network inhibition for CCCn1c(CNC(=O)c2cccs2)nc2ccccc21
2.11

Give the measured RAM network inhibition for CCCCn1c(=O)cc(N2CCOCC2)[nH]c1=O
-0.95

Give the measured RAM network inhibition for Cc1nc2ccccc2c2oc(C(=O)Nc3ccc4c(c3)OCCO4)cc12
8.55

Give the measured RAM network inhibition for CC1CCCN(C(=O)C2CCN(S(=O)(=O)c3cccc4cccnc34)CC2)C1 (configuration not stated)
5.46

Give the measured RAM network inhibition for CC(=O)Nc1ccc(S(=O)(=O)n2cnc3cc(C)c(C)cc32)cc1
1.45

Give the measured RAM network inhibition for CN(C)c1cc(-c2ccccc2)nc(N)n1
0.09

Give the measured RAM network inhibition for COc1ccccc1CC(=O)N1CCN(c2cccc(C(F)(F)F)c2)CC1
7.84

Give the measured RAM network inhibition for CCOC(=O)c1c(N=CN(C)C)c(C#N)n2c1CCC2
5.49

Give the measured RAM network inhibition for COc1ccccc1NC(=O)CSc1nnc(C)o1
2.69

Give the measured RAM network inhibition for O=C(CCS(=O)NCc1ccccc1)NCc1ccccc1 (configuration not stated)
1.51

Give the measured RAM network inhibition for CCOc1ccc(N(CC(=O)Nc2nccs2)S(=O)(=O)c2c(C)noc2C)cc1
8.94

Give the measured RAM network inhibition for CCCC(=O)N1CCN(C2=NS(=O)(=O)c3ccccc32)CC1
3.82

Give the measured RAM network inhibition for O=C(O)c1c(F)c(F)c(F)c(F)c1-c1ccc(Cl)cc1
5.79

Give the measured RAM network inhibition for COc1ccc(C(c2sc3ncnn3c2O)N2CC(C)OC(C)C2)cc1OC (configuration not stated)
0.12

Give the measured RAM network inhibition for O=C(Nc1cccc2ccccc12)N1CCN(c2ccc(F)cc2)CC1
3.08

Give the measured RAM network inhibition for COc1ccc(-c2nc(Cn3c(SCc4cccc(F)c4)nc4ccncc43)c(C)o2)cc1OC
3.81

Give the measured RAM network inhibition for CCn1c(CNC(=O)c2cccc(C)c2)nc2ccccc21
5

Give the measured RAM network inhibition for Cc1noc(C(=O)NCc2cccnc2)c1Cl
5.93

Give the measured RAM network inhibition for CN(C)C(=O)N1CCC(C(=O)NCc2ccc(F)cc2)CC1
5.08

====

- measurement-description: inhibitors of the yeast RAM network, pilot screen, dse1pr::URA3 reporter, 5-FOA selection (AID 869);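 further: 0% = DMSO wells with no growth and 100% = 10 µM 1-NA-PP1 with full growth; RAM network block rescues cells from 5-FOA so hits raise OD615 growth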
- assay-context: S. cerevisiae dse1pr::URA3 5-FOA growth, OD615, 2 d; at 10 µM; hits give high values; strain carries analog-sensitive mutant Cbk1 kinase
For each entry below, report its inhibition value.
I only need the number, in %, no unit after it.

Give the measured inhibition for Cn1c(Cn2c(=O)sc3ccccc32)nnc1SCC(=O)N1CCCc2ccccc21
1.82

Give the measured inhibition for O=C(COC(=O)c1cccs1)Nc1ccccc1
1.56

Give the measured inhibition for Cc1nn(-c2ccc(Cl)cc2)c2sc(C(=O)N3CCN(C(=O)c4ccco4)CC3)cc12
2

Give the measured inhibition for O=C1CCC(C(=O)N(c2ccccc2)C2(C(=O)NC3CCCCC3)CCCCC2)N1 (configuration not stated)
0.505

Give the measured inhibition for O=C1CCc2cc(S(=O)(=O)NC(C(=O)NCc3cccnc3)c3ccccc3)ccc2N1 (configuration not stated)
-0.185

Give the measured inhibition for CCOc1ccc(N2C(=O)CC(Sc3nc(C)cc(C)n3)C2=O)cc1 (configuration not stated)
0.24

Give the measured inhibition for COc1ccc(Cc2nnc(SC)[nH]c2=O)cc1OC
0.225

Give the measured inhibition for CCOc1cccc(C2c3c(oc4cc(C)c(C)cc4c3=O)C(=O)N2CCCN(C)C)c1 (configuration not stated)
1.8

Give the measured inhibition for Cc1ccc2c(c1)NCC(C(=O)NCc1ccccc1)O2 (configuration not stated)
1.46

Give the measured inhibition for O=C(O)CC1(Cc2nc(-c3cccs3)no2)CCCC1
0.35

Give the measured inhibition for CC1CC(C)CN(CCCNC(=O)CNC(=O)Cn2ccc3ccccc3c2=O)C1 (configuration not stated)
0.76

Give the measured inhibition for O=S(=O)(c1cc(Cl)ccc1Cl)N1CCN(Cc2ccc3c(c2)OCO3)CC1
0.37

Give the measured inhibition for O=C(NCc1ccccn1)C1CCN(S(=O)(=O)N2CCCC2)CC1
0.3

Give the measured inhibition for CCOc1ccc2nc(N3CCCC(C(=O)N4CCN(CC)CC4)C3)sc2c1 (configuration not stated)
0.775

Give the measured inhibition for O=S(=O)(NCCSc1nc2ccccc2o1)c1ccccc1
-0.55

Give the measured inhibition for c1csc(Cc2nc(-c3ccc(-n4cccc4)cc3)no2)c1
3.12

Give the measured inhibition for Cc1c(NC(=O)OCc2ccccc2)c(=O)n(-c2ccccc2)n1C
1.35

====

- measurement-description: Restrictive medium S. cerevisiae growth inhibition, OD615, pilot screen of yeast lifespan reduction project, restrictive growth control (AID 706);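 further: modified DeaD lifespan yeast strain shifted to restrictive glucose medium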
- assay-context: OD615, 48 h, at 10 µM, hits give high values
For each entry below, report its growth inhibition value.
I only need the number, in %, no unit after it.

Give the measured growth inhibition for O=C1c2ccccc2C(O)N1Cc1ccco1 (centres undefined)
-0.555

Give the measured growth inhibition for CCc1c(C)sc(NC(=O)c2cc(C)no2)c1C#N
8.59

Give the measured growth inhibition for CCOC(=O)N1CCC(N2Cc3cccc(C(=O)NCc4ccccn4)c3C2=O)CC1
8.18

Give the measured growth inhibition for CCOC(=O)c1ccc(Nc2nnc(C(C)(C)C)c(=O)[nH]2)cc1
-21.9

====

- measurement-description: OD615 S. cerevisiae growth inhibition, permissive medium, pilot counter-assay, permissive growth control for S. cerevisiae lifespan shortening project (AID 705)
- assay-context: OD615, 24 h, at 10 µM, hits give high values
experimental-endpoint: growth inhibition (%)
I only need the number, in %, no unit after it.

Give the measured growth inhibition for CC(=O)Nn1cc2c(=O)n(C)c(=O)n(C)c2c1
-5.47

Give the measured growth inhibition for CC(C)CC(NS(=O)(=O)c1ccc2c(c1)oc(=O)n2C)C(=O)NCc1cccnc1 (centres undefined)
-0.43

Give the measured growth inhibition for COc1ccc(N2C(=O)c3ccccc3NC23CCCCC3)cc1
-13.4

Give the measured growth inhibition for Nc1cc(C(F)(F)F)ccc1C(=O)O
9.88

Give the measured growth inhibition for C=CCn1c(SCCCC)nc(O)cc1=O
1.55

Give the measured growth inhibition for O=C(O)CCc1n[nH]c(=S)[nH]c1=O
-5.76

Give the measured growth inhibition for Cc1c(N2C(=O)CSC23C(=O)Nc2ccccc23)c(=O)n(-c2ccccc2)n1C (centres undefined)
-10.1

Give the measured growth inhibition for O=C(CCCSc1nc2sc3c(c2c(=O)[nH]1)CCC3)NCCCO
-8.91

Give the measured growth inhibition for Cc1c2cnn(-c3ccccc3)c(=O)c2c(C)n1CCCC(=O)N1CCN(C)CC1
-6.96

Give the measured growth inhibition for CC(C)N(Cc1nc(-c2ccccc2)no1)C(=O)c1ccc(Cl)cc1
-9.85

Give the measured growth inhibition for C=CCn1c(C(C)NC(=O)COC)nc2ccccc21 (centres undefined)
-2.42

Give the measured growth inhibition for CCN(CC)S(=O)(=O)c1ccc(Cl)c(C(=O)NC2CCCC2)c1
-6.5

Give the measured growth inhibition for O=C(C1CC1)N1CCc2cc(Br)cc(S(=O)(=O)NCc3ccccn3)c21
-8.05

Give the measured growth inhibition for COC(=O)C1C2C=CC3(CN(c4ccc(Cl)c(F)c4)C(=O)C13)O2 (centres undefined)
-5.96

Give the measured growth inhibition for CCCC(=O)Nc1ccccc1-c1nnc(SC)[nH]c1=O
-10.4

Give the measured growth inhibition for CCN1CCN(Cc2ccc(NC(=O)Nc3ccccc3OC)cc2)CC1
-1.11

Give the measured growth inhibition for O=C(NCCC1=CCCCC1)C1CCN(c2nnc(-n3cccc3)s2)CC1
3.32

Give the measured growth inhibition for CN(C)C(=O)N1CCC(C(=O)NCc2ccc(F)cc2)CC1
4.29

Give the measured growth inhibition for CCCCn1c(CNC(=O)c2cccs2)nc2ccccc21
-5.02
